Where do these numbers come from? They come from paper PMC10367348.

# subjectOfTest: T1, matrix protein 2 [Influenza A virus (A/New York/392/2004(H3N2))] (Influenza A virus (A/New …, UniProt P0DOF5, strain))
# T1 construct: also called M2; M2 protein
# methodSummary: flow cytometry on cells
# studyConditions: one partner purified
Ends that are not written are not given here.
valueType: binding result

Specify binding result for scFv UU1 (scFv, V domains shown) VH: EVQLLESGGGLVQPGGSLRLSCAASGFTFSSYAMSWVRQAPGKGLEWVSTISMSGKRTQYADSVKGRFTISRDNSKNTLYLQMNSLRAEDTAVYYCAKRHRYFDYWGQGTLVTVSS VL: DIQMTQSPSSLSASVGDRVTITCRASQSISSYLNWYQQKPGKAPKLLIYRASKLQSGVPSRFSGSGSGTDFTLTISSLQPEDFATYYCQQPGWRPKTFGQGTKVEIK and stop.
binds
